Method: LAP4-GFP expression modulators in yeast, confirmation, cell-based, cherry picks, flow cytometry, mother/daughter gates (AID 2271);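 also: ratio of sample to DMSO plate mean so 100% equals DMSO level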
Run Conditions: S. cerevisiae LAP4-GFP strain, 3 h, measured here: daughter cell gate response, at 10 µM, stronger effect = higher value, 100 means same as DMSO control
Measurement Label: GFP response relative to DMSO (%)
One number for each entry, in %.

Molecule	GFP response relative to DMSO / %
Cc1cccn2c(=O)c(/C=C(\C#N)C(=O)NCc3ccccc3)c(N3CCC(C(N)=O)CC3)nc12	102
O=S(=O)(c1ccc(Cl)cc1)c1snnc1-c1ccccc1	123
Cc1cc(C)c(C(=O)COC(=O)c2ccc([N+](=O)[O-])o2)cc1C	102
Cc1ccc(S(=O)(=O)Nc2cc(Cl)c(O)c3ncccc23)cc1	120
C[C@]12CCC(=O)C=C1CC[C@@H]1[C@@H]2C(=O)C[C@@]2(C)[C@H]1CC[C@]2(O)C(=O)CO	99.3

Each of the following entries comes with a recorded value; kindly state GFP response relative to DMSO for each.
1. COc1ccc(/C=N/Nc2nc(-c3cccnc3)nc3ccccc23)cc1OC
2. O=C(Nc1ccc(NC(=O)c2cc3ccccc3o2)cc1)c1ccco1

Data returned:
[130, 95.9]

Each of the following entries comes with a recorded value; kindly state GFP response relative to DMSO for each.
1. CCOc1ccc(N2C(=O)CC(SCCN)C2=O)cc1 (stereo not given)
2. Cc1cc(N2CCN(C(=O)c3ccco3)CC2)n2ncc(-c3ccccc3)c2n1
3. COc1ccc(N=Cc2cc(Cc3ccccc3Cl)cc([N+](=O)[O-])c2O)cc1OC
4. O=C(O)c1ccccc1C(=O)N1CCN(c2cccc(Cl)c2)CC1
5. O=C(Nc1nc(-c2ccccc2)cs1)c1ccc(Br)o1
6. Cc1cccn2c(N)c(-c3ccccc3)nc12
7. CCCc1[nH]nc2c1C(c1ccc(OCCN3CCOCC3)c(OC)c1)C(C#N)=C(N)O2 (stereo not given)
8. CCc1nnc(NC(=O)CSc2nnc(C3CCCCC3)n2-c2cccc(Cl)c2)s1

Data returned:
1. 99.2
2. 96
3. 114
4. 97.9
5. 101
6. 96.5
7. 99.2
8. 99.3

====

Method: superoxide lowering in aged yeast cells, pilot screen, validation compound set (AID 2706);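 also: yeast exposed to compound for one week at 30 degrees C before staining; 100% = mean of all compound wells on the same plate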
Run Conditions: S. cerevisiae aging, superoxide DHE fluorescence; at 10 µM, stronger effect = lower value
Would you kindly list superoxide response (% of plate) for each of these compounds?
Numbers only, in %.

Compound	Unit Tag	Test Value
O=C(NCCc1nc2ccccc2[nH]1)c1cccc(Br)c1	%	92.6
COc1cccc(CN2CCN(C(=O)c3ccc(-c4ccccc4)cc3)CC2)c1	%	87.9
Cc1cnc(C(=O)N2CCCC(C(=O)c3ccc(Cl)cc3C)C2)cn1 (stereo unspecified)	%	109
Cc1ncc([N+](=O)[O-])n1CC(C)O (stereo unspecified)	%	100
CCN(CC)CCNC(=O)c1cc(S(C)(=O)=O)ccc1OC	%	88.3

Turning now to a further record.
Briefly, superoxide response (% of plate) measured for N=C1C(c2ccccc2)=C(O)CN1CCCO : 91.2

====

Method: RPL19A-GFP modulators, yeast TOR pathway, confirmation, cell-based, S. cerevisiae, flow cytometry, cherry picks, mother/daughter gates (AID 2270)
Run Conditions: S. cerevisiae RPL19A-GFP strain, 3 h, measured here: mother cell gate, at 10 µM, stronger effect = lower value, 100 = same GFP as DMSO wells
Measurement Label: GFP response vs DMSO (%)
Give bare numbers, in %.

Some solved entries appear below for comparison.
Compound	Test Value
Oc1c(CN2CCCCC2)cc(Br)c2cccnc12	105
CN(C)c1ccc(/C=N/NC(=O)c2ccc(Cl)cc2)cc1	97.4
C/C(=N\NC(=O)c1cccc(Br)c1)c1ccc(Br)cc1	95
O=C(O)CCc1ccc(-c2ccc(Cl)cc2)o1	97.2
O=[N+]([O-])c1cc(C(F)(F)F)ccc1Sc1ccccn1	101
Cc1cc(N2CCCCC2)n2ncc(-c3ccccc3)c2n1	98.4
Cn1cc(/C=C/c2cc[n+](C)cc2)c2cc(Cl)ccc21	100
O=[N+]([O-])c1cc(S(=O)(=O)C(F)(F)F)ccc1Sc1nc2ccccc2s1	93.1
COc1ccc(C2C3=C(CCCC3=O)N(CC(=O)O)C3=C2C(=O)CCC3)cc1Cl	98.5
O=C(O)Cn1cc(/C=C/[N+](=O)[O-])c2ccccc21	97.2

Each of the following entries comes with a recorded value; kindly state GFP response vs DMSO for each.
1. CC1CN(c2nc3ccccn3c(=O)c2/C=C(\C#N)C(N)=O)CC(C)O1 (configuration not stated)
2. Cc1ccc(CN2CCSc3sccc3C2=O)cc1

Data returned:
1. 95.8
2. 85.5
